# experimental.target: HIV-1 envelope glycoprotein gp120 of virus VS001 (HIV-1)
# test.protocol: cell-based or functional assay
attribute.measured: neutralization IC50

binder | result
2.2.15-1 (antibody, human IgG1, kappa, V domains shown) VH: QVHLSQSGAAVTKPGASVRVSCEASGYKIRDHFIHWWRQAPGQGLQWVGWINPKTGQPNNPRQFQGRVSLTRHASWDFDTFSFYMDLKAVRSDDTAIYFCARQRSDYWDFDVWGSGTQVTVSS VL: DIQMTQSPSSLSARVGDTATITCQANGYLNWYQQRRGKAPKLLIYDGSKLERGVPARFSGRRWGQEYTLTINNLQPEDVATYFCQVYEFFGPGTRLDLKR | 0.37 µg/mL
2.2.18-1 (antibody, human IgG1, kappa, V domains shown) VH: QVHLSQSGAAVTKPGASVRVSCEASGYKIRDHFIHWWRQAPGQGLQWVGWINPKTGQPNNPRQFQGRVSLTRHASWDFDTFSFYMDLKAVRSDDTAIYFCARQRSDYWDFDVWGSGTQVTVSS VL: DIQMTQSPSSLSARVGDRATITCQANGYLNWYQQRRGKAPKLLIYDGSKLERGVPARFSGSRWGQEYHLTISSLQPEDVATYFCQVYEFFGPGTRLDLKR | 2.51 µg/mL
